B1: Hairpin Ribozyme (parent)
chain: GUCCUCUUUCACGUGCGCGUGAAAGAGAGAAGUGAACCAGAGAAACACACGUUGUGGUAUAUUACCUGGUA

- Variants of: B1
- TEST PROTOCOL: self-cleavage, relative activity (ratio to wild type); higher = more cleavage; co-transcriptional
// class assignment uses self-cleavage with these ranges: lo: < 0.2; med: ≥ 0.2 and < 0.4; hi: ≥ 0.4

Incoming: Which class is correct for the following variant? G1C U58A
Outgoing: lo

Incoming: Which class is correct for the following variant? A26G A61G
Outgoing: lo

Incoming: Which class is correct for the following variant? A26C A59G
Outgoing: lo

Incoming: Which class is correct for the following variant? U5G U33G
Outgoing: lo

Incoming: Which class is correct for the following variant? U9A G56U
Outgoing: lo

Incoming: Which class is correct for the following variant? G1A C10U
Outgoing: med

Incoming: Which class is correct for the following variant? G25U G40C
Outgoing: lo

Incoming: Which class is correct for the following variant? A41C C66U
Outgoing: hi

Incoming: Which class is correct for the following variant? G13C U20A
Outgoing: hi

Incoming: Which class is correct for the following variant? G1A C18G
Outgoing: lo

Incoming: Which class is correct for the following variant? A28U U58C
Outgoing: hi

Incoming: Which class is correct for the following variant? A39G A41G
Outgoing: hi

Incoming: Which class is correct for the following variant? A44C G69A
Outgoing: lo

Incoming: Which class is correct for the following variant? A35G U60C
Outgoing: hi

Incoming: Which class is correct for the following variant? G25U A31G
Outgoing: med

Incoming: Which class is correct for the following variant? A61G A71G
Outgoing: lo

Incoming: Which class is correct for the following variant? U9C C18G
Outgoing: hi

Incoming: Which class is correct for the following variant? U14G U60C
Outgoing: hi

Incoming: Which class is correct for the following variant? C46G U58A
Outgoing: med

Incoming: Which class is correct for the following variant? A61G U62C
Outgoing: lo

Incoming: Which class is correct for the following variant? U2G C10A
Outgoing: med

Incoming: Which class is correct for the following variant? U14C G17C
Outgoing: hi

Incoming: Which class is correct for the following variant? A11U G68U
Outgoing: med

Incoming: Which class is correct for the following variant? C46U U55A
Outgoing: lo

Incoming: Which class is correct for the following variant? C3A U20C
Outgoing: hi

Incoming: Which class is correct for the following variant? C10U U58A
Outgoing: hi

Incoming: Which class is correct for the following variant? G29A U62C
Outgoing: lo

Incoming: Which class is correct for the following variant? C6G A44U
Outgoing: lo

Incoming: Which class is correct for the following variant? A41U G42U
Outgoing: med

Incoming: Which class is correct for the following variant? U7C U63C
Outgoing: med

Incoming: Which class is correct for the following variant? G34A G51U
Outgoing: hi

Incoming: Which class is correct for the following variant? C3A C46A
Outgoing: med

Incoming: Which class is correct for the following variant? U63A C65A
Outgoing: med

Incoming: Which class is correct for the following variant? A30U A45C
Outgoing: lo

Incoming: Which class is correct for the following variant? A49C U53C
Outgoing: med

Incoming: Which class is correct for the following variant? C16A G56C
Outgoing: med

Incoming: Which class is correct for the following variant? G54C A71G
Outgoing: hi

Incoming: Which class is correct for the following variant? C50U C65G
Outgoing: lo

Incoming: Which class is correct for the following variant? U9C U58G
Outgoing: hi

Incoming: Which class is correct for the following variant? C38G C46A
Outgoing: lo

Incoming: Which class is correct for the following variant? U5C U7C
Outgoing: med

Incoming: Which class is correct for the following variant? G42U A59U
Outgoing: lo

Incoming: Which class is correct for the following variant? A41G U67G
Outgoing: hi

Incoming: Which class is correct for the following variant? U14G G34A
Outgoing: hi

Incoming: Which class is correct for the following variant? U8G A35G
Outgoing: hi

Incoming: Which class is correct for the following variant? U60G C66U
Outgoing: med

Incoming: Which class is correct for the following variant? U8G G19C
Outgoing: med

Incoming: Which class is correct for the following variant? A30C C38G
Outgoing: lo

Incoming: Which class is correct for the following variant? A26C U63C
Outgoing: lo

Incoming: Which class is correct for the following variant? C6A U53A
Outgoing: hi

Incoming: Which class is correct for the following variant? A28C G56A
Outgoing: lo

Incoming: Which class is correct for the following variant? U2G G68A
Outgoing: lo

Incoming: Which class is correct for the following variant? G34U U52G
Outgoing: hi

Incoming: Which class is correct for the following variant? G15C A31U
Outgoing: lo

Incoming: Which class is correct for the following variant? C6A U14C
Outgoing: hi

Incoming: Which class is correct for the following variant? U9A U20G
Outgoing: hi

Incoming: Which class is correct for the following variant? G19C G56A
Outgoing: lo

Incoming: Which class is correct for the following variant? A22U A23U
Outgoing: hi

Incoming: Which class is correct for the following variant? C50G G54A
Outgoing: hi

Incoming: Which class is correct for the following variant? C4U C66U
Outgoing: med

Incoming: Which class is correct for the following variant? G51U U67A
Outgoing: med

Incoming: Which class is correct for the following variant? U2G C50A
Outgoing: lo

Incoming: Which class is correct for the following variant? C18U U67A
Outgoing: lo
